run_description: self-splicing fitness, log relative to wild type (ln ratio); higher = more splicing; Tetrahymena group I intron in knt gene, E. coli kanamycin selection, DiMSum; sequences stand for … in CUCUCU…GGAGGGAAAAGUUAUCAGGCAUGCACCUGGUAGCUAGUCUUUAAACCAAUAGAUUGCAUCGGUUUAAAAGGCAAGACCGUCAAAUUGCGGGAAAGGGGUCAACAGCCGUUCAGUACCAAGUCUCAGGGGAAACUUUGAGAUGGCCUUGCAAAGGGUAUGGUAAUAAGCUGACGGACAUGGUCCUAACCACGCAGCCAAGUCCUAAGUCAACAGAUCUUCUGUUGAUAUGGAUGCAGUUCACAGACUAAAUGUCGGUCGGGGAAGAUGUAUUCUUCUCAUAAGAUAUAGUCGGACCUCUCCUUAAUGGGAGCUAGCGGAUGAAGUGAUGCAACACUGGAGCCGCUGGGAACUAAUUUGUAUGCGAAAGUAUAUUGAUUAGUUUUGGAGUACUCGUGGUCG;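 further: selection with 25 µg/mL kanamycin versus none on LB agar overnight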
setup_conditions: 37 °C
We use -1 as the dividing line for self-splicing fitness (ln): on or above the line is satisfied, below is not satisfied.

query: Check the entry UGCUAGCAAUAUUACGUGAC : does self-splicing fitness (ln) equal or exceed -1?
result: not satisfied

query: Check the entry UUGGAGCAAUAUUACGCAAG : does self-splicing fitness (ln) equal or exceed -1?
result: not satisfied

query: Check the entry GAAUAGCAAUAUUACGAGCU : does self-splicing fitness (ln) equal or exceed -1?
result: satisfied

query: Check the entry UGCCAGCAAUAUUACGGUAA : does self-splicing fitness (ln) equal or exceed -1?
result: satisfied

query: Check the entry CAGUAGCAAUAUUACGGCCA : does self-splicing fitness (ln) equal or exceed -1?
result: not satisfied

query: Check the entry GUUGAGCAAUAUUACGGCUU : does self-splicing fitness (ln) equal or exceed -1?
result: not satisfied

query: Check the entry AGGGAGCAAUAUUACGGCCA : does self-splicing fitness (ln) equal or exceed -1?
result: satisfied

query: Check the entry UUAAAGCAAUAUUACGGGAG : does self-splicing fitness (ln) equal or exceed -1?
result: satisfied

query: Check the entry UGUUAGCAAUAUUACGGCUA : does self-splicing fitness (ln) equal or exceed -1?
result: satisfied

query: Check the entry GUGUAGCAAUAUUACGAGUA : does self-splicing fitness (ln) equal or exceed -1?
result: not satisfied

query: Check the entry UGUUAGCAAUAUUACGCCUC : does self-splicing fitness (ln) equal or exceed -1?
result: satisfied

query: Check the entry AGCCAGCAAUAUUACGAAAC : does self-splicing fitness (ln) equal or exceed -1?
result: not satisfied

query: Check the entry CAUCAGCAAUAUUACGUGAA : does self-splicing fitness (ln) equal or exceed -1?
result: satisfied

query: Check the entry UCCCAGCAAUAUUACGGGCC : does self-splicing fitness (ln) equal or exceed -1?
result: not satisfied

query: Check the entry GUGAAGCAAUAUUACGCUUU : does self-splicing fitness (ln) equal or exceed -1?
result: not satisfied

query: Check the entry CCGUAGCAAUAUUACGGAGG : does self-splicing fitness (ln) equal or exceed -1?
result: not satisfied

query: Check the entry UUUUAGCAAUAUUACGGUUA : does self-splicing fitness (ln) equal or exceed -1?
result: satisfied

query: Check the entry GGAAAGCAAUAUUACGUUAC : does self-splicing fitness (ln) equal or exceed -1?
result: satisfied

query: Check the entry ACAAAGCAAUAUUACGAACU : does self-splicing fitness (ln) equal or exceed -1?
result: satisfied

query: Check the entry ACCUAGCAAUAUUACGAGGU : does self-splicing fitness (ln) equal or exceed -1?
result: not satisfied

query: Check the entry UGCUAGCAAUAUUACGGCUG : does self-splicing fitness (ln) equal or exceed -1?
result: satisfied

query: Check the entry CGGCAGCAAUAUUACGGCGG : does self-splicing fitness (ln) equal or exceed -1?
result: satisfied

query: Check the entry AUCCAGCAAUAUUACGAACC : does self-splicing fitness (ln) equal or exceed -1?
result: satisfied

query: Check the entry GGACAGCAAUAUUACGAGAC : does self-splicing fitness (ln) equal or exceed -1?
result: not satisfied

query: Check the entry AAGAAGCAAUAUUACGUCGC : does self-splicing fitness (ln) equal or exceed -1?
result: not satisfied

query: Check the entry GGCCAGCAAUAUUACGUGUU : does self-splicing fitness (ln) equal or exceed -1?
result: satisfied

query: Check the entry CUAUAGCAAUAUUACGCGUG : does self-splicing fitness (ln) equal or exceed -1?
result: satisfied

query: Check the entry CUGCAGCAAUAUUACGGGGG : does self-splicing fitness (ln) equal or exceed -1?
result: not satisfied

query: Check the entry AGUCAGCAAUAUUACGUAUG : does self-splicing fitness (ln) equal or exceed -1?
result: not satisfied

query: Check the entry GUUGAGCAAUAUUACGACAG : does self-splicing fitness (ln) equal or exceed -1?
result: not satisfied

query: Check the entry UAGGAGCAAUAUUACGUCUG : does self-splicing fitness (ln) equal or exceed -1?
result: satisfied

query: Check the entry ACUCAGCAAUAUUACGUUGU : does self-splicing fitness (ln) equal or exceed -1?
result: not satisfied

query: Check the entry CAAAAGCAAUAUUACGAAAA : does self-splicing fitness (ln) equal or exceed -1?
result: not satisfied

query: Check the entry UACAAGCAAUAUUACGGGAC : does self-splicing fitness (ln) equal or exceed -1?
result: not satisfied

query: Check the entry GCCCAGCAAUAUUACGUCUA : does self-splicing fitness (ln) equal or exceed -1?
result: not satisfied

query: Check the entry ACUGAGCAAUAUUACGCGUA : does self-splicing fitness (ln) equal or exceed -1?
result: not satisfied

query: Check the entry CAUGAGCAAUAUUACGGGCA : does self-splicing fitness (ln) equal or exceed -1?
result: not satisfied

query: Check the entry CCUAAGCAAUAUUACGCUGA : does self-splicing fitness (ln) equal or exceed -1?
result: not satisfied

query: Check the entry CAACAGCAAUAUUACGGGUU : does self-splicing fitness (ln) equal or exceed -1?
result: not satisfied

query: Check the entry GUAGAGCAAUAUUACGACUG : does self-splicing fitness (ln) equal or exceed -1?
result: not satisfied

query: Check the entry AUUGAGCAAUAUUACGUCUA : does self-splicing fitness (ln) equal or exceed -1?
result: not satisfied

query: Check the entry UUUCAGCAAUAUUACGAGCU : does self-splicing fitness (ln) equal or exceed -1?
result: not satisfied

query: Check the entry AGUCAGCAAUAUUACGGAGU : does self-splicing fitness (ln) equal or exceed -1?
result: satisfied

query: Check the entry UCGGAGCAAUAUUACGUACU : does self-splicing fitness (ln) equal or exceed -1?
result: not satisfied

query: Check the entry GCUUAGCAAUAUUACGACCC : does self-splicing fitness (ln) equal or exceed -1?
result: satisfied

query: Check the entry UUUGAGCAAUAUUACGUAUA : does self-splicing fitness (ln) equal or exceed -1?
result: not satisfied

query: Check the entry UGACAGCAAUAUUACGGUUC : does self-splicing fitness (ln) equal or exceed -1?
result: not satisfied

query: Check the entry GGUAAGCAAUAUUACGCAAU : does self-splicing fitness (ln) equal or exceed -1?
result: not satisfied

query: Check the entry GUAGAGCAAUAUUACGCAGC : does self-splicing fitness (ln) equal or exceed -1?
result: not satisfied

query: Check the entry CAAAAGCAAUAUUACGGGUU : does self-splicing fitness (ln) equal or exceed -1?
result: not satisfied

query: Check the entry CCAGAGCAAUAUUACGACUG : does self-splicing fitness (ln) equal or exceed -1?
result: satisfied

query: Check the entry UUGAAGCAAUAUUACGUCGC : does self-splicing fitness (ln) equal or exceed -1?
result: not satisfied

query: Check the entry CUACAGCAAUAUUACGAAAC : does self-splicing fitness (ln) equal or exceed -1?
result: not satisfied

query: Check the entry GACCAGCAAUAUUACGACGU : does self-splicing fitness (ln) equal or exceed -1?
result: satisfied

query: Check the entry CUCGAGCAAUAUUACGUUCG : does self-splicing fitness (ln) equal or exceed -1?
result: not satisfied

query: Check the entry CCGGAGCAAUAUUACGCUUC : does self-splicing fitness (ln) equal or exceed -1?
result: satisfied

query: Check the entry UGCUAGCAAUAUUACGCAGA : does self-splicing fitness (ln) equal or exceed -1?
result: not satisfied

query: Check the entry GAAGAGCAAUAUUACGCGUC : does self-splicing fitness (ln) equal or exceed -1?
result: not satisfied
